System: NCI/ADR-RES ovarian
Experiment: NCI-60 one-dose screen, 48 h (100 = growth as untreated, 0 = no growth, -100 = all killed)
Details: 10 µM unless noted
The panel holds about 83,000 compounds, 20% with a hit somewhere; the sample as a whole holds those more often.
observationType: growth (%)
Quick reminder: number only, in %, skip the unit.

Consider the following illustrative entries.
compound	growth, %
CNC(=O)c1cccc(Cn2nc(C)c(NC(=O)c3ccc(COc4ccc(C(F)(F)F)cc4C)cc3)c2C)c1	35.4
O=C(/C=C/c1ccc(F)cc1)c1ccc(NC(=O)N2CCN(c3cc4c(cc3F)c(=O)c(C(=O)O)cn4C3CC3)CC2)cc1	100
COc1cc(C=O)ccc1OC1OC(COC(C)=O)C(OC(C)=O)C(OC(C)=O)C1OC(C)=O (stereo not given)	103
CC(C)(C)c1ccc(NS(=O)(=O)c2ccc3nc(NC(=O)c4cnccn4)[nH]c3c2)cc1	30.6

Observed growth, NCI/ADR-RES ovarian, O=C(N/N=C/c1cc2ccccc2n2nnnc12)Nc1ccccc1 : 105

Observed growth, NCI/ADR-RES ovarian, C[C@H]1[C@H](C)CC[C@]2(C(=O)NCC#CCN3CCN(C)CC3)CC[C@]3(C)C(=CC[C@@H]4[C@@]5(C)Cc6c([nH]c7ccccc67)C(C)(C)[C@@H]5CC[C@]43C)[C@H]12 : 82.8

Observed growth, NCI/ADR-RES ovarian, N#C/C(=C\c1ccc(C(F)(F)F)cc1)c1cc2ccccc2[nH]1 : 104

Observed growth, NCI/ADR-RES ovarian, O=c1c2c(c(=O)n1O)c1c3ccc[nH]c3nc1c1nc3[nH]cccc3c12 : 89.6

Observed growth, NCI/ADR-RES ovarian, O=C(CSc1nc2sc3c(c2c(=O)n1-c1ccc(Cl)cc1)CCCC3)Nc1nc(-c2cccc(Br)c2)cs1 : 80.5

Observed growth, NCI/ADR-RES ovarian, COc1cc(/C=C2\COc3ccc(-c4ccccc4)cc3C2=O)cc(OC)c1 : 61

Observed growth, NCI/ADR-RES ovarian, O=c1ccc(-c2nc(N3CCOCC3)c3ccccc3n2)c[nH]1 : 96.9

Observed growth, NCI/ADR-RES ovarian, c1ccc2c(-c3c[nH]c4ccccc34)c3c(cc2c1)[nH]c1ccccc13 : 56.6

Observed growth, NCI/ADR-RES ovarian, CCOC(=O)CSc1nc2ccccc2c(=O)n1Cc1ccc(S(N)(=O)=O)cc1 : 104

Observed growth, NCI/ADR-RES ovarian, C[C@H](c1nc2ccc(N)cc2[nH]1)[C@H]1CC[C@H]2[C@@H]3CCC4=CC(=O)CC[C@]4(C)[C@H]3CC[C@]12C : 89

Observed growth, NCI/ADR-RES ovarian, Cc1ccc(-c2csc(NC(=O)CSc3nc(-c4ccccc4)cc(=O)[nH]3)n2)cc1 : 93.4

Observed growth, NCI/ADR-RES ovarian, Cc1ccc(NC(C(=O)c2ccccc2)c2ccccc2)cc1 (stereo not given) : 92.8

Observed growth, NCI/ADR-RES ovarian, COc1cc(NCCCCCNC(C)(C)C)c2ncccc2c1 : 85.4

Observed growth, NCI/ADR-RES ovarian, CN1C(=O)NC(c2ccc3c(c2)OCO3)C=C1c1ccccc1 (stereo not given) : 98.8

These measurements were taken from PubChem BioAssay (NCI).
